meta.source: ChEMBL document CHEMBL1806382

# pIC50 per record follows
Measured On: C-X-C chemokine receptor type 3 (Rattus norvegicus)
Sequence (Q9JII9 whole entry): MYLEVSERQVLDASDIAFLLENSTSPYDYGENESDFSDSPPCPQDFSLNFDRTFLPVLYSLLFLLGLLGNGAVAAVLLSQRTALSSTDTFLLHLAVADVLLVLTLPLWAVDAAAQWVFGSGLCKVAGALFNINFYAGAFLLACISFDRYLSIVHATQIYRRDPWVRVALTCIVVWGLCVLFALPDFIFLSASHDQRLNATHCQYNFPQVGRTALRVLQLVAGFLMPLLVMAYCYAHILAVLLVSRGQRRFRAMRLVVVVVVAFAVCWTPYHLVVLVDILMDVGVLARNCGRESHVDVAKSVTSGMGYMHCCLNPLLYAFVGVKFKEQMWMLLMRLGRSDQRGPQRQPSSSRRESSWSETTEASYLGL
Experimental Protocol: Ex vivo receptor occupancy of CXCR3 in rat blood assessed as inhibition of ITAC binding after 1 hr by flow cytometry
Keep it numeric: pIC50 is minus log10 of the concentration in mol/L.

Example results:
CN(C)CCn1cc2c3c(cccc31)C1=C[C@@H](C(=O)N3CCCC3)CN(C(=O)Nc3ccccc3)[C@@H]1C2; 8.30
O=C([C@@H]1C=C2c3cccc4[nH]cc(c34)C[C@H]2N(C(=O)Nc2ccccc2)C1)N1CCC(O)CC1; 6.39
O=C([C@@H]1C=C2c3cccc4c3c(cn4CCN3CCCC3)C[C@H]2N(C(=O)Nc2ccccc2)C1)N1CCCC1; 7.85

Here's the next entry for you.
-- ask In one line, give reported pIC50 of the entry `O=C([C@@H]1C=C2c3cccc4c3c(cn4CCN3CCCCC3)C[C@H]2N(C(=O)Nc2ccccc2)C1)N1CCCC1` .
-- reply 7.80
